Recorded values, source patent US12516053B2.

# Tested on: RS4;11 (BCL-2 dependent acute lymphoblastic leukemia cell line)
# Test: RS4;11 cell proliferation assay
# Type: cell-based
# Condition Context: Homo sapiens, RS4-11, 48 hrs treatment, CellTiter-GLO, read-out: Cellular proliferation assay (IC50, nM) RS4
IC50 values for the molecules below.
Readout: IC50 (nM)

- Given Smiles: "CC(C)c1ccccc1[C@@H]1CCCN1C1CC2(CCN(c3ccc(C(=O)NS(=O)(=O)c4cc5c(c([N+](=O)[O-])c4)N[C@H](C[C@H]4CC[C@H](O)CC4)CO5)c(N4C[C@@H](C)Oc5nc6[nH]ccc6cc54)c3)CC2)C1"
  Study System: "RS4;11 (BCL-2 dependent acute lymphoblastic leukemia cell line)"
  Result Value: 0.8
- Given Smiles: "CC(C)c1ccccc1[C@@H]1CCCN1C1CC2(CCN(c3ccc(C(=O)NS(=O)(=O)c4ccc(NC[C@H]5CC[C@](C)(O)CC5)c([N+](=O)[O-])c4)c(N4CCCOc5nc6[nH]ccc6cc54)c3)CC2)C1"
  Study System: "RS4;11 (BCL-2 dependent acute lymphoblastic leukemia cell line)"
  Result Value: 1.7
- Given Smiles: "CC(C)c1ccccc1[C@@H]1CCCN1C1CC2(C1)CN(c1ccc(C(=O)NS(=O)(=O)c3ccc(NCC4(F)CCOCC4)c([N+](=O)[O-])c3)c(N3CCOc4nc5[nH]ccc5cc43)c1)C2"
  Study System: "RS4;11 (BCL-2 dependent acute lymphoblastic leukemia cell line)"
  Result Value: 3.6
- Given Smiles: "CC(C)c1ccccc1[C@@H]1CCCN1C1CC2(C1)CN(c1ccc(C(=O)NS(=O)(=O)c3ccc(NC[C@H]4COCCO4)c([N+](=O)[O-])c3)c(N3CCCOc4nc5[nH]ccc5cc43)c1)C2"
  Study System: "RS4;11 (BCL-2 dependent acute lymphoblastic leukemia cell line)"
  Result Value: 8
- Given Smiles: "CC(C)c1ccccc1[C@@H]1CCCN1C1CC2(CCN(c3ccc(C(=O)NS(=O)(=O)c4ccc(NC[C@H]5CC[C@](C)(O)CC5)c([N+](=O)[O-])c4)c(N4C[C@H](C)Oc5nc6[nH]ccc6cc54)c3)CC2)C1"
  Study System: "RS4;11 (BCL-2 dependent acute lymphoblastic leukemia cell line)"
  Result Value: 0.34

###

# System: RS4;11 (BCL-2 dependent acute lymphoblastic leukemia cell line)
# Test: RS4;11 cell proliferation assay
# Format: cell-based
# Condition Context: Homo sapiens, RS4-11, 48 hrs treatment, CellTiter-GLO, read-out: Cellular proliferation assay (IC50, nM) RS4
Rule: measured IC50 below 2 nM gets true; anything equal to or greater than 2 nM gets false.

- Compound: "CC(C)c1ccccc1[C@@H]1CCCN1C1CC2(C1)CN(c1ccc(C(=O)NS(=O)(=O)c3ccc(NCC4(F)CCOCC4)c([N+](=O)[O-])c3)c(N3CCCOc4nc5[nH]ccc5cc43)c1)C2"
  Group Label: "false"
- Compound: "[2H]C1([2H])CC2(CC(N3CCC[C@H]3c3ccccc3C(C)C)C2)CC([2H])([2H])N1c1ccc(C(=O)NS(=O)(=O)c2cc3c(c([N+](=O)[O-])c2)N[C@H](C[C@H]2CC[C@H](O)CC2)CO3)c(Oc2cnc3[nH]ccc3c2)c1"
  Group Label: "true"
- Compound: "CC(C)c1ccccc1[C@@H]1CCCN1C1CC2(CCN(c3ccc(C(=O)NS(=O)(=O)c4cc5c(c([N+](=O)[O-])c4)N[C@H](C[C@H]4CC[C@H](O)CC4)CO5)c(Oc4cnc5[nH]ccc5c4)c3)CC2)C1"
  Group Label: "true"
- Compound: "CC(C)c1ccccc1[C@@H]1CCCN1C1CC2(CCN(c3ccc(C(=O)NS(=O)(=O)c4ccc(NC[C@H]5CC[C@](C)(O)CC5)c([N+](=O)[O-])c4)c(N4C[C@@H](C)Oc5nc6[nH]ccc6cc54)c3)CC2)C1"
  Group Label: "true"
- Compound: "[2H]C1([2H])CCC([2H])(c2ccccc2C(C)C)N1C1CC2(CCN(c3ccc(C(=O)NS(=O)(=O)c4cc5c(c([N+](=O)[O-])c4)N[C@H](C[C@H]4CC[C@H](O)CC4)CO5)c(Oc4cnc5[nH]ccc5c4)c3)CC2)C1 (stereo partly drawn)"
  Group Label: "true"
- Compound: "CC1(C)CCC(CN2CCN(c3ccc(C(=O)NS(=O)(=O)c4ccc(NCC5CCOCC5)c([N+](=O)[O-])c4)c(Oc4cnc5[nH]ccc5c4)c3)CC2)=C(c2ccc(Cl)cc2)C1 [ABT-199, Venetoclax, reference compound]"
  Group Label: "false"
- Compound: "CC(C)c1ccccc1[C@@H]1CCCN1C1CC2(CCN(c3ccc(C(=O)NS(=O)(=O)c4cc5c(c([N+](=O)[O-])c4)N[C@H](C[C@H]4CC[C@@H](O)CC4)CO5)c(Oc4cnc5[nH]ccc5c4)c3)CC2)C1"
  Group Label: "true"
- Compound: "CC(C)c1ccccc1[C@@H]1CCCN1C1CC2(CCN(c3ccc(C(=O)NS(=O)(=O)c4ccc(NCC5(F)CCOCC5)c([N+](=O)[O-])c4)c(N4CCCOc5nc6[nH]ccc6cc54)c3)CC2)C1"
  Group Label: "true"
- Compound: "CC(C)c1ccccc1[C@@H]1CCCN1C1CC2(C1)CN(c1ccc(C(=O)NS(=O)(=O)c3ccc(NC[C@H]4CC[C@](C)(O)CC4)c([N+](=O)[O-])c3)c(N3CCOc4nc5[nH]ccc5cc43)c1)C2"
  Group Label: "false"
